- measurement target: recombinant soluble homotrimeric HA of A/common magpie/Hong Kong/5052/07 (H5N1) (Influenza A virus A/common magpie/Hong Kong/5052/2007 (H5N1))
- assay details: HA microarray, BCC supernatant
- stated conditions: remark: other sources report otherwise
Attribute: Trimeric HA Binding RLU
measure name: Trimeric HA Binding RLU (RLU)

| binder | measure name | measured value |
| --- | --- | --- |
| TCN-530 (5248_H10a) (antibody, V domains shown) VH: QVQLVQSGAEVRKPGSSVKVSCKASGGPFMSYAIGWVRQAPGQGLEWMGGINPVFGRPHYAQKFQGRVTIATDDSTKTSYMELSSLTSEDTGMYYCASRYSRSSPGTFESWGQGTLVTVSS VL: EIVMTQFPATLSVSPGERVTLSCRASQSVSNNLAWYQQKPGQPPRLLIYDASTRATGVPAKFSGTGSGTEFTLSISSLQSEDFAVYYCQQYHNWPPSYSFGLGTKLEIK | Trimeric HA Binding RLU | 42500 |
| TCN-523 (5248_A17) (antibody, V domains shown) VH: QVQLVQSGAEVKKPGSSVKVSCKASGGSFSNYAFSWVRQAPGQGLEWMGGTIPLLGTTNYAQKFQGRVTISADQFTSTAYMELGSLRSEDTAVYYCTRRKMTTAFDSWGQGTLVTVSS VL: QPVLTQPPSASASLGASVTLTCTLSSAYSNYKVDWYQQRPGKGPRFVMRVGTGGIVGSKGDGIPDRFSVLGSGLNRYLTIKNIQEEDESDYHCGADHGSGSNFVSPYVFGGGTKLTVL | Trimeric HA Binding RLU | 45800 |
| TCN-551 (5243_D01) (antibody, V domains shown) VH: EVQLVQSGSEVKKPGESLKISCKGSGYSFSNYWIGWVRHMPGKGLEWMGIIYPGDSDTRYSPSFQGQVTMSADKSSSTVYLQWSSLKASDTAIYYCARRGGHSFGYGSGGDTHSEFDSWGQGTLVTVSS VL: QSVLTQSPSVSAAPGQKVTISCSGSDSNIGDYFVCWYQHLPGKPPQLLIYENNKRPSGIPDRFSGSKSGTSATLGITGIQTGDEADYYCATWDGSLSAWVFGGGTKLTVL | Trimeric HA Binding RLU | 45700 |

These measurements were taken from patent US20150104459A1.
